target.system: MARK2 (human)
test: KINOMEscan competition binding
condition.label: compound 10.0 µM
Overview of reported kinase still bound, per cent of control across a group of compounds:
Number only, in %; omit the unit.

>  <molecule>
Cc1ccc(NC(=O)c2cccc(C(C)(C)C#N)c2)cc1Nc1ccc2ncn(C)c(=O)c2c1

>  <units>
%

>  <kinase still bound, per cent of control>
92

$$$$
>  <molecule>
C=CC(=O)Nc1cccc(Oc2nc(Nc3ccc(N4CCN(C)CC4)cc3OC)ncc2Cl)c1

>  <units>
%

>  <kinase still bound, per cent of control>
100

$$$$
>  <molecule>
CC[C@@H]1C(=O)N(C)c2cnc(Nc3ccc(C(=O)NC4CCN(C)CC4)cc3OC)nc2N1C1CCCC1

>  <units>
%

>  <kinase still bound, per cent of control>
100

$$$$
>  <molecule>
C=CC(=O)Nc1cc(NC(=O)c2ccc(C)c(NC(=O)c3ccno3)c2)cc(C(F)(F)F)c1

>  <units>
%

>  <kinase still bound, per cent of control>
100

$$$$

Recorded kinase still bound, per cent of control (compound O=C1Nc2ccc(I)cc2/C1=C/c1cc(Br)c(O)c(Br)c1 ): 44
